The reader will find reported relative viability values listed item by item below.
# System: MES-SA
# Measurement protocol: relative viability vs DMSO control (72 h) (fraction); higher = more viable cells
# Test parameters: 0.04115 µM
Assay readout: relative viability

>>> readout_number("Cc1ccc(C(=O)OCc2ccc([C@@H](CN)C(=O)Nc3ccc4cnccc4c3)cc2)c(C)c1 [Netarsudil]")
0.884
>>> readout_number("COc1cc(Nc2c(C#N)cnc3cc(OCCCN4CCN(C)CC4)c(OC)cc23)c(Cl)cc1Cl [Bosutinib]")
0.993
>>> readout_number("COc1cc2ncnc(Nc3cccc(Cl)c3F)c2cc1OC(=O)N1CCN(C)C[C@H]1C [AZD-3759]")
0.929
>>> readout_number("COc1cc2nccc(Oc3ccc(NC(=O)C4(C(=O)Nc5ccc(F)cc5)CC4)cc3)c2cc1OC [Cabozantinib]")
0.929
